Values from ChEMBL document CHEMBL3885861

Species: Rattus norvegicus
Experiment notes: Open TG-GATES - Regimen: Daily Repeat
Type: toxicity, organism-based, Sprague-Dawley
Design: regimen Daily Repeat, gender Male, age 6 weeks
Condition: in vivo, po, 100 mg/kg, […], tissue Blood, route gavage, dose level Low, time 7 day
For each of the compounds below, state its PT.
Give bare numbers, in s.

Consider the following illustrative entries.
compound="CCOC(=O)CCC(=O)O[C@H]1[C@H](O[C@@H]2[C@@H](C)[C@H](O[C@H]3C[C@@](C)(OC)[C@@H](O)[C@H](C)O3)[C@@H](C)C(=O)O[C@H](CC)[C@@](C)(O)[C@H](O)[C@@H](C)C(=O)[C@H](C)C[C@@]2(C)O)O[C@H](C)C[C@@H]1N(C)C [ERYTHROMYCIN ETHYLSUCCINATE]" parameter_measured=PT reported=16.8
compound="COc1ccc2[nH]c([S+]([O-])Cc3ncc(C)c(OC)c3C)nc2c1 (stereo not given)" parameter_measured=PT reported=12.2
compound=NC(N)=Nc1nc(CSCCC(N)=NS(N)(=O)=O)cs1 parameter_measured=PT reported=12.1
compound=COC1=CC(=O)C[C@@H](C)[C@]12Oc1c(Cl)c(OC)cc(OC)c1C2=O parameter_measured=PT reported=12.2

Attention now shifts to the item below.
Recorded PT (compound CCOc1ccc(NC(=O)CC(C)O)cc1 (stereo not given) ): 14

---

Organism: Rattus norvegicus
Experiment notes: Open TG-GATES - Regimen: Single
Type: toxicity, organism-based, Sprague-Dawley
Set-up: regimen Single, gender Male, age 6 weeks
Condition: in vivo, po, 100 mg/kg, 9 h, tissue Plasma, route gavage, dose level Low
Parameter measured: DBIL (mg/dL)
Answers are plain numbers, in mg/dL.

Please review the following examples before continuing.
compound=NC(N)=Nc1nc(CSCCC(N)=NS(N)(=O)=O)cs1 parameter_measured=DBIL unit_string=mg/dL reported=0.064
compound="COc1ccc2[nH]c([S+]([O-])Cc3ncc(C)c(OC)c3C)nc2c1 (centres undefined)" parameter_measured=DBIL unit_string=mg/dL reported=0.066
compound=COC1=CC(=O)C[C@@H](C)[C@]12Oc1c(Cl)c(OC)cc(OC)c1C2=O parameter_measured=DBIL unit_string=mg/dL reported=0.078

Okay, next one:
Record CCOC(=O)CCC(=O)O[C@H]1[C@H](O[C@@H]2[C@@H](C)[C@H](O[C@H]3C[C@@](C)(OC)[C@@H](O)[C@H](C)O3)[C@@H](C)C(=O)O[C@H](CC)[C@@](C)(O)[C@H](O)[C@@H](C)C(=O)[C@H](C)C[C@@]2(C)O)O[C@H](C)C[C@@H]1N(C)C [ERYTHROMYCIN ETHYLSUCCINATE] , field DBIL: 0

---

Organism: Rattus norvegicus
Experiment notes: Open TG-GATES - Regimen: Single
Assay type: toxicity, organism-based, Sprague-Dawley
Design: regimen Single, gender Male, age 6 weeks
Condition: in vivo, po, 300 mg/kg, 6 h, tissue Blood, route gavage, dose level Middle
Kindly state Neu for each of the entries shown.
One number for each entry, in %.

Solved cases below.
molecule="COc1ccc2[nH]c([S+]([O-])Cc3ncc(C)c(OC)c3C)nc2c1 (centres undefined)" unit_string=% reported=20.6
molecule=COC1=CC(=O)C[C@@H](C)[C@]12Oc1c(Cl)c(OC)cc(OC)c1C2=O unit_string=% reported=22.4
molecule="CCOC(=O)CCC(=O)O[C@H]1[C@H](O[C@@H]2[C@@H](C)[C@H](O[C@H]3C[C@@](C)(OC)[C@@H](O)[C@H](C)O3)[C@@H](C)C(=O)O[C@H](CC)[C@@](C)(O)[C@H](O)[C@@H](C)C(=O)[C@H](C)C[C@@]2(C)O)O[C@H](C)C[C@@H]1N(C)C [ERYTHROMYCIN ETHYLSUCCINATE]" unit_string=% reported=16.4

Data point: NC(N)=Nc1nc(CSCCC(N)=NS(N)(=O)=O)cs1 ; Neu = 18.4

---

Species: Rattus norvegicus
Experiment notes: Open TG-GATES - Regimen: Daily Repeat
Type: toxicity, organism-based, Sprague-Dawley
Parameters: regimen Daily Repeat, gender Male, age 6 weeks
Condition: in vivo, po, 100 mg/kg, […], route gavage, dose level Low, time 14 day
Parameter measured: TERMINAL_BW (g)
Give bare numbers, in g.

Example molecules with recorded TERMINAL_BW:
molecule="COc1ccc2[nH]c([S+]([O-])Cc3ncc(C)c(OC)c3C)nc2c1 (stereo not given)" parameter_measured=TERMINAL_BW unit_string=g reported=323
molecule=COC1=CC(=O)C[C@@H](C)[C@]12Oc1c(Cl)c(OC)cc(OC)c1C2=O parameter_measured=TERMINAL_BW unit_string=g reported=308.3
molecule="CCOc1ccc(NC(=O)CC(C)O)cc1 (stereo not given)" parameter_measured=TERMINAL_BW unit_string=g reported=338.2
molecule="CCOC(=O)CCC(=O)O[C@H]1[C@H](O[C@@H]2[C@@H](C)[C@H](O[C@H]3C[C@@](C)(OC)[C@@H](O)[C@H](C)O3)[C@@H](C)C(=O)O[C@H](CC)[C@@](C)(O)[C@H](O)[C@@H](C)C(=O)[C@H](C)C[C@@]2(C)O)O[C@H](C)C[C@@H]1N(C)C [ERYTHROMYCIN ETHYLSUCCINATE]" parameter_measured=TERMINAL_BW unit_string=g reported=320.9

Then there is this molecule:
The reported value for NC(N)=Nc1nc(CSCCC(N)=NS(N)(=O)=O)cs1 in terms of TERMINAL_BW is 310.4

---

Species on record: Rattus norvegicus
Experiment notes: Open TG-GATES - Regimen: Single
Assay type: toxicity, organism-based, Sprague-Dawley
Set-up: regimen Single, gender Male, age 6 weeks
Condition: in vivo, po, 0 mg/kg, 24 h, tissue Blood, route gavage, dose level Control
Would you mind telling me the reported Plat of each entry?
Answers are plain numbers, in x10_4/uL.

compound=CN(C)CCN(Cc1cccs1)c1ccccn1 parameter_measured=Plat reported=120.3
compound=NC(N)=Nc1nc(CSCCC(N)=NS(N)(=O)=O)cs1 parameter_measured=Plat reported=126.9
compound=Cc1ccc(C)c(OCCCC(C)(C)C(=O)O)c1 parameter_measured=Plat reported=117.7
compound=CN(C)CCCN1c2ccccc2CCc2ccccc21 parameter_measured=Plat reported=114.2

Report Plat for every entry below.
1. NNC(=O)c1ccncc1
2. CCOC(=O)CCC(=O)O[C@H]1[C@H](O[C@@H]2[C@@H](C)[C@H](O[C@H]3C[C@@](C)(OC)[C@@H](O)[C@H](C)O3)[C@@H](C)C(=O)O[C@H](CC)[C@@](C)(O)[C@H](O)[C@@H](C)C(=O)[C@H](C)C[C@@]2(C)O)O[C@H](C)C[C@@H]1N(C)C [ERYTHROMYCIN ETHYLSUCCINATE]
3. CCOc1ccc(NC(=O)CC(C)O)cc1 (configuration not stated)
4. CN1C(=O)CN=C(c2ccccc2)c2cc(Cl)ccc21
5. CN(C)CCCN1c2ccccc2CCc2ccc(Cl)cc21
6. COC1=CC(=O)C[C@@H](C)[C@]12Oc1c(Cl)c(OC)cc(OC)c1C2=O
7. CC/C(=C(\c1ccccc1)c1ccc(OCCN(C)C)cc1)c1ccccc1

**Result**
127.6
111.9
121.1
108.9
129
111.8
116.6

Need Plat for each of these compounds.
1. COc1ccc2[nH]c([S+]([O-])Cc3ncc(C)c(OC)c3C)nc2c1 (configuration not stated)
2. O=C(CCCN1CCC(O)(c2ccc(Cl)cc2)CC1)c1ccc(F)cc1
3. C[C@@H]1C[C@H]2[C@@H]3CCC4=CC(=O)C=C[C@]4(C)[C@@]3(F)[C@@H](O)C[C@]2(C)[C@@]1(O)C(=O)CO
4. CCCNC(=O)NS(=O)(=O)c1ccc(Cl)cc1 [CHLORPROPAMIDE]

**Result**
118.9
107.6
124.7
117.6

Batch request: Plat per item, same order as input.
1. COc1cc2c(c(OC)c1OC)-c1ccc(OC)c(=O)cc1[C@@H](NC(C)=O)CC2
2. CC1=C(/C=C/C(C)=C/C=C/C(C)=C/CO)C(C)(C)CCC1

**Result**
1. 118.5
2. 119.1

---

Organism: Rattus norvegicus
Experiment notes: Open TG-GATES - Regimen: Single
Format: toxicity, organism-based, Sprague-Dawley
Parameters: regimen Single, gender Male, age 6 weeks
Condition: in vivo, po, 0 mg/kg, 9 h, tissue Blood, route gavage, dose level Control
Parameter measured: Lym

Below, each entry is followed by its recorded Lym result.
compound="C[C@@H]1C[C@H]2[C@@H]3CCC4=CC(=O)C=C[C@]4(C)[C@@]3(F)[C@@H](O)C[C@]2(C)[C@@]1(O)C(=O)CO [DEXAMETHASONE]" parameter_measured=Lym reported=73.2%
compound="CN1C(=O)CN=C(c2ccccc2)c2cc(Cl)ccc21 [DIAZEPAM]" parameter_measured=Lym reported=79.2%

Provide reported Lym for each item, in the same order as listed.
1. COc1ccc2[nH]c([S+]([O-])Cc3ncc(C)c(OC)c3C)nc2c1 (centres undefined) [OMEPRAZOLE]
2. O=C(CCCN1CCC(O)(c2ccc(Cl)cc2)CC1)c1ccc(F)cc1 [HALOPERIDOL]

**Result**
1. 78%
2. 68.6%
